Tested on: DU145
Experiment: NCI 60-cell drug screen, one dose
Type: cell-based, human
Conditions: Prostate Cancer DU145, 1.00E−5 Molar
Please go through the items and note down their Growth Percent.
One number for each entry, in %.

Example entries and their recorded answers appear below.
CCN(CC)Cc1nc2ccc3c(c2[nH]1)C(=O)c1ccccc1C3=O [CL04] :: 73.54
O=C1c2ccccc2C(=O)c2c1ccc1nc(CN3CCCCC3)[nH]c21 [CL16] :: 74.90
O=C1c2ccccc2C(=O)c2c1ccc1nc(CN3CCN(c4ccccc4)CC3)[nH]c21 [CL27] :: 90.69
O=C1c2ccccc2C(=O)c2c1ccc1nc(CN3CCN(c4ccccn4)CC3)[nH]c21 [CL28] :: 81.46

Please look at the items below and tell me Growth Percent for each one, in order.
1. CN1CCN(Cc2nc3ccc4c(c3[nH]2)C(=O)c2ccccc2C4=O)CC1 [CL24]
2. CN(CCc1ccccn1)Cc1nc2ccc3c(c2[nH]1)C(=O)c1ccccc1C3=O [CL07]

Result block:
1: 60.08; 2: 83.70
